B1: Fused in sarcoma (FUS) wildtype with N-terminal GFP tag [not stated] / itself (parent)
chain: MASNDYTQQATQSYGAYPTQPGQGYSQQSSQPYGQQSYSGYSQSTDTSGYGQSSYSSYGQSQNTGYGTQSTPQGYGSTGGYGSSQSSQSSYGQQSSYPGYGQQPAPSSTSGSYGSSSQSSSYGQPQSGSYSQQPSYGGQQQSYGQQQSYNPPQGYGQQNQYNSSSGGGGGGGGGGNYGQDQSSMSSGGGSGGGYGNQDQSGGGGSGGYGQQDRGGRGRGGSGGGGGGGGGGYNRSSGGYEPRGRGGGRGGRGGMGGSDRGGFNKFGGPRDQGSRHDSEQDNSDNNTIFVQGLGENVTIESVADYFKQIGIIKTNKKTGQPMINLYTDRETGKLKGEATVSFDDPPSAKAAIDWFDGKEFSGNPIKVSFATRRADFNRGGGNGRGGRGRGGPMGRGGYGGGGSGGGGRGGFPSGGGGGGGQQRAGDWKCPNPTCENMNFSWRNECNQCKAPKPDGPGGGPGGSHMGGNYGDDRRGGRGGYDRGGYRGRGGDRGGFRGGRGGGDRGGFGPGKMDSRGEHRQDRRERPY

- Variants of: B1
- Test details: SiMPull photobleaching step analysis
- Test context: with itself; 0.4M sorbitol 4 hr; read off a plot
Result type: photobleaching steps (steps)
Unit steps implied. Number only.

Solved entries:
chain 1 R244C yielded photobleaching steps of 2.1

chain 1 R216C yielded photobleaching steps of 2.2

***
chain 1 G187S yielded photobleaching steps of 2.5

chain 1 G156E yielded photobleaching steps of 2

Origin of the recorded values: paper PMC10139993
